assay: solubility in water or aqueous buffer; settings: water or aqueous buffer, aqueous buffer

Molecule	solubility
CCCC(=O)Oc1c(OC)cc(C=C2SC(=S)N(CC(=O)O)C2=O)cc1OC [11d, n=2]	> 2000 µM

====

experiment: solubility in water or aqueous buffer; details: water

Compound	solubility in water
COc1cc(/C=C/c2ccc3ccccc3[n+]2C)ccc1OP(=O)(O)O [21f]	very soluble in water
COc1cc(/C=C/c2cc[n+](C)c3ccccc23)ccc1O[C@@H]1O[C@H](CO)[C@H](O)[C@H](O)[C@H]1O [23c]	good water solubility
COc1cc(/C=C/c2cc[n+](C)c3ccccc23)ccc1O[C@@H]1O[C@H](CO)[C@@H](O)[C@H](O)[C@H]1NC(C)=O [23b]	good water solubility
COc1cc(C=C2SC(=S)N(C)C2=O)ccc1OP(=O)(O)O [9F]	very soluble in water
COc1cc(/C=C/c2ccc3ccccc3[n+]2C)cc(OC)c1OP(=O)(O)O [22f]	very soluble in water

====

test system: N-acetyl-β-D-glucosaminidase (NAGase); assay: substrate test with N-acetyl-β-D-glucosaminidase; format: biochemical
Measurement name: quality as substrate for NAGase

Compound	Result
COc1cc(/C=C/c2cc[n+](C)c3ccccc23)ccc1O[C@@H]1O[C@H](CO)[C@@H](O)[C@H](O)[C@H]1NC(C)=O [23b]	fair substrate
COc1cc(C=C2SC(=S)N(CC(=O)O)C2=O)cc(OC)c1O[C@@H]1O[C@H](CO)[C@@H](O)[C@H](O)[C@H]1NC(C)=O [11b]	fair substrate

====

biological target: E. Coli β-galactosidase (Escherichia coli, UniProt P00722); test: substrate test with β-galactosidase; assay type: biochemical
Sequence (P00722 2-1024): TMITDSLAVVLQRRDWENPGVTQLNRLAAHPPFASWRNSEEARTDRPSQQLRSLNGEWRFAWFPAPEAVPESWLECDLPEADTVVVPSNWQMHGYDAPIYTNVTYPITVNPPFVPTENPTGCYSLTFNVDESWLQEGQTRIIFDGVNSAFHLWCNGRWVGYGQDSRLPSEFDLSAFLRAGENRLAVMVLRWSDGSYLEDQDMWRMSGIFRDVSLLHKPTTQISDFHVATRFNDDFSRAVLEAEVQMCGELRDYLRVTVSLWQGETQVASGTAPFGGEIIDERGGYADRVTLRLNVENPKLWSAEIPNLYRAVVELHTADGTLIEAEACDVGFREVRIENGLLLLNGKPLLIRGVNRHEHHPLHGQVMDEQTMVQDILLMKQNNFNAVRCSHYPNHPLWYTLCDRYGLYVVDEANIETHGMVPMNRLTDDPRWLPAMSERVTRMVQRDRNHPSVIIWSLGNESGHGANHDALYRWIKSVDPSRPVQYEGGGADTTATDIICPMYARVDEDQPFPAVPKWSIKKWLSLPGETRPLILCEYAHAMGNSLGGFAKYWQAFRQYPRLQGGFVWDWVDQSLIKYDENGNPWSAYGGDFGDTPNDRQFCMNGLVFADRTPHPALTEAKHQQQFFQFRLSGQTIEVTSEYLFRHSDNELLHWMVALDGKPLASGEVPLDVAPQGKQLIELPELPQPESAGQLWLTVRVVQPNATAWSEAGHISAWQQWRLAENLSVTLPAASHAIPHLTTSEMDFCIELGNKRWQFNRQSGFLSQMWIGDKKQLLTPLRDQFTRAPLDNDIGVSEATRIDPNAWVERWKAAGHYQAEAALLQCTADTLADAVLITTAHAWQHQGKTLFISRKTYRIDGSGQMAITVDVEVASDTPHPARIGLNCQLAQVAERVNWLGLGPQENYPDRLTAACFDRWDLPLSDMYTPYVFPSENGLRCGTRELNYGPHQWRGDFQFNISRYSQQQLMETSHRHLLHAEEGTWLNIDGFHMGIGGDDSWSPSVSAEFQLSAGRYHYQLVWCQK
Measurement name: quality as substrate for E. Coli β-galactosidase

Compound	Tested on	Result
COc1cc(/C=C/c2cc[n+](C)c3ccccc23)ccc1O[C@@H]1O[C@H](CO)[C@H](O)[C@H](O)[C@H]1O [23c]	E. Coli β-galactosidase (Escherichia coli, UniProt P00722)	excellent substrate
COc1cc(/C=C/c2ccc3ccccc3[n+]2C)ccc1O[C@@H]1O[C@H](CO)[C@H](O)[C@H](O)[C@H]1O [21c]	E. Coli β-galactosidase (Escherichia coli, UniProt P00722)	excellent substrate
COc1cc(/C=C/c2ccc3ccccc3[n+]2C)cc(OC)c1O[C@@H]1O[C@H](CO)[C@H](O)[C@H](O)[C@H]1O [22c]	E. Coli β-galactosidase (Escherichia coli, UniProt P00722)	good a substrate
COc1cc(/C=C/c2cc[n+](C)c3ccccc23)cc(OC)c1O[C@@H]1O[C@H](CO)[C@H](O)[C@H](O)[C@H]1O [24c]	E. Coli β-galactosidase (Escherichia coli, UniProt P00722)	good a substrate
